Record form. Attribute: efflux ratio at 2 h, 10 µM. Fill in for each entry.
Tested on: P-gp
Assay: in vitro
Conditions: human, Caco-2

Incoming: Name the recorded efflux ratio at 2 h, 10 µM of CC[C@H]1OC(=O)[C@H](C)[C@@H](O[C@H]2C[C@@](C)(OC)[C@@H](O)[C@H](C)O2)[C@H](C)[C@@H](O[C@@H]2O[C@H](C)C[C@H](N(C)C)[C@H]2O)[C@](C)(OC)C[C@@H](C)C(=O)[C@H](C)[C@@H](O)[C@]1(C)O , assay system P-gp.
Outgoing: 0.8

Incoming: State the measured efflux ratio at 2 h, 10 µM (P-gp) of OC(Cn1cncn1)(Cn1cncn1)c1ccc(F)cc1F
Outgoing: 0.1

Incoming: Provide efflux ratio at 2 h, 10 µM, recorded with P-gp, of COc1cc2c(c(OC)c1OC)-c1ccc(OC)c(=O)cc1[C@@H](NC(C)=O)CC2
Outgoing: 0.8

Incoming: // output efflux ratio at 2 h, 10 µM; input O=C(O)c1cc(/N=N/c2ccc(S(=O)(=O)Nc3ccccn3)cc2)ccc1O ; system P-gp
Outgoing: 32.2

Incoming: System P-gp. Read-out efflux ratio at 2 h, 10 µM. Item COc1cccc2c1C(=O)c1c(O)c3c(c(O)c1C2=O)C[C@@](O)(C(C)=O)C[C@@H]3O[C@H]1C[C@H](N)[C@H](O)[C@H](C)O1 . Report value.
Outgoing: 0.4

Incoming: # return efflux ratio at 2 h, 10 µM of CC[C@]1(O)C[C@@H]2CN(CCc3c([nH]c4ccccc34)[C@@](C(=O)OC)(c3cc4c(cc3OC)N(C)[C@H]3[C@@](O)(C(=O)OC)[C@H](OC(C)=O)[C@]5(CC)C=CCN6CC[C@]43[C@@H]65)C2)C1 (system: P-gp)
Outgoing: 2

Incoming: Look up and report efflux ratio at 2 h, 10 µM, with P-gp as system, for COC(=O)[C@H]1[C@H]2C[C@@H]3c4[nH]c5cc(OC)ccc5c4CCN3C[C@H]2C[C@@H](OC(=O)c2cc(OC)c(OC)c(OC)c2)[C@@H]1OC
Outgoing: 0.7

Incoming: Specify efflux ratio at 2 h, 10 µM for COC(=O)C1=C(C)NC(C)=C(C(=O)OCCN(C)Cc2ccccc2)C1c1cccc([N+](=O)[O-])c1 (centres undefined) , system P-gp.
Outgoing: 0.5

Incoming: Provide the reported efflux ratio at 2 h, 10 µM (system: P-gp) for CN/C(=N/CCSCc1nc[nH]c1C)NC#N
Outgoing: 1.8

Incoming: // fetch efflux ratio at 2 h, 10 µM; item: COc1cc([C@@H]2c3cc4c(cc3[C@@H](O[C@@H]3O[C@@H]5CO[C@@H](C)O[C@H]5[C@H](O)[C@H]3O)[C@H]3COC(=O)[C@H]23)OCO4)cc(OC)c1O [ETOPOSIDE] ; system: P-gp
Outgoing: 1.4

Incoming: Using P-gp as the test system, report measured efflux ratio at 2 h, 10 µM of COc1cc(Cc2cnc(N)nc2N)cc(OC)c1OC .
Outgoing: 0.4

Incoming: Given CCn1cc(C(=O)O)c(=O)c2cc(F)c(N3CCNCC3)cc21 , report its efflux ratio at 2 h, 10 µM on P-gp.
Outgoing: 1.7

Incoming: Provide efflux ratio at 2 h, 10 µM, tested on P-gp, for CC(C)(C)NC(=O)[C@@H]1CN(Cc2cccnc2)CCN1C[C@@H](O)C[C@@H](Cc1ccccc1)C(=O)N[C@H]1c2ccccc2C[C@H]1O.O .
Outgoing: 0.8

Incoming: Please respond with reported efflux ratio at 2 h, 10 µM (system P-gp) for CCCCC(=O)N(Cc1ccc(-c2ccccc2-c2nnn[nH]2)cc1)[C@H](C(=O)O)C(C)C .
Outgoing: 2.9
